- Measurement Target: UniProt P56481
- Sequence (P56481 1-453): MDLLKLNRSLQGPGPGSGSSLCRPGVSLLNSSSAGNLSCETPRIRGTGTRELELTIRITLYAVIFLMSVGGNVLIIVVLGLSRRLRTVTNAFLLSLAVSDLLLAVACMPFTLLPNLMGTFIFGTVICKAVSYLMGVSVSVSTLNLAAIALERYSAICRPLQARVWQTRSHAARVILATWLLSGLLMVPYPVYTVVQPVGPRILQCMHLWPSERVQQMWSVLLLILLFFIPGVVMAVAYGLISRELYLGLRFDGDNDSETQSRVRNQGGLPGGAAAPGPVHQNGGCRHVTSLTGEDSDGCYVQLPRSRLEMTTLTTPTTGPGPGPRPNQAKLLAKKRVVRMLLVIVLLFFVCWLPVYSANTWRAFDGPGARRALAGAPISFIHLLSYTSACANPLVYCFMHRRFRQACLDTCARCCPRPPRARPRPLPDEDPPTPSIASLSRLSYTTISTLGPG
- Procedure Details: Binding to central CCK receptors (tritiated-pentagastrin displacement, cerebral cortical membranes)
- Test Context: read-out: Binding to Central CCK Receptors Ki; displacement of 2 nM tritiated-pentagastrin, mouse cerebral cortical membranes
The following compounds are listed with their measured log10(Ki) values.
Please note: log10 values; quantity Ki; unit nM.

Below are worked cases with known answers.
Compound	log10(Ki)
CC(Cc1c[nH]c2ccccc12)(NC(=O)OC1C2CC3CC(C2)CC1C3)C(=O)NCC(NC(=O)CCc1nn[nH]n1)c1ccccc1 (stereo not shown) [Example 33]	0.78
CC(Cc1c[nH]c2ccccc12)(NC(=O)O[C@@H]1CCCC[C@H]1Cl)C(=O)NC(CO)Cc1ccccc1 (mixture of isomers) [Example 14]	4.02
CC(Cc1c[nH]c2ccccc12)(NC(=O)OC1C2CC3CC(C2)CC1C3)C(=O)NC(CNC(=O)CCC(=O)O)Cc1ccccc1 (stereo not shown) [Example 19]	1.15
CC(Cc1c[nH]c2ccccc12)(NC(=O)OC1C2CC3CC(C2)CC1C3)C(=O)NC(CNC(=O)C=CC(=O)O)Cc1ccccc1 (stereo not shown) [Example 19A]	-1.10
CC(Cc1c[nH]c2ccccc12)(NC(=O)OC1CC2CCC1(C)C2(C)C)C(=O)NCCc1ccccc1 (racemic) [Example 8]	2.92
CC(Cc1c[nH]c2ccccc12)(NC(=O)OC1CC2CCC1C2)C(=O)NCCc1ccccc1 (racemic) [Example 9]	3.88
CC(Cc1c[nH]c2ccccc12)(NC(=O)OC1CC2CCC1C2)C(=O)NCCc1ccccc1 (racemic) [Example 10]	3.94
CC(Cc1c[nH]c2ccccc12)(NC(=O)OC1CC2CCC1(C)C2(C)C)C(=O)NCC(NC(=O)CCC(=O)O)c1ccccc1 (stereo not shown) [Example 20A]	0.48

-- ask # returns recorded log10(Ki) (system: UniProt P56481) for CC1CCCCC1OC(=O)NC(C)(Cc1c[nH]c2ccccc12)C(=O)NCC(NC(=O)CCC(=O)O)c1ccccc1 (single isomer, unassigned) [Example 40]
-- reply 0.59

---

Consider the following molecules and their measured Ki readings.
- Measurement Target: Central CCK Receptors (Mus musculus)
- Procedure Details: Binding to central CCK receptors (tritiated-pentagastrin displacement, cerebral cortical membranes)
Give your result in µM as a bare value.

Molecule	Measurement Target	Readout Type	Readout Value
CC(Cc1c[nH]c2ccccc12)(NC(=O)O[C@@H]1CCCC[C@H]1Cl)C(=O)NCCc1ccccc1 (mixture of isomers) [Example 2]	Central CCK Receptors (Mus musculus)	Ki	3.15

-- ask Please provide the recorded Ki for C[C@](Cc1c[nH]c2ccccc12)(NC(=O)OC1CC2CC3CC(C2)C1C3)C(=O)N[C@H](CO)Cc1ccccc1 (some centres unmarked) [Example 11] , tested on Central CCK Receptors (Mus musculus).
-- reply 0.054

These entries and their values trace back to patent US5622983A.
